Documented growth across a set of compounds
Tested on: SNB-19 CNS
Assay: NCI-60 one-dose screen, 48 h (100 = growth as untreated, 0 = no growth, -100 = all killed)
Conditions: 10 µM unless noted
The panel holds about 83,000 compounds, 20% with a hit somewhere; the sample as a whole holds those more often.
Give the value in % but do not write % after it.

* C[C@H]1C(=O)N2c3ccccc3[C@@]3(O)C[C@@H](n4cnc5ccccc5c4=O)C(=O)N1[C@@H]23 | 99.7
* COP(=O)(OC)C(c1ccccc1)(c1ccccc1)c1ccccc1 | 99.9
* Cc1nn(-c2ccccc2)c2nc(N)c(C3=NCCO3)nc12 | 100
* Nc1nc2c(c(=O)[nH]1)C1(C(=O)Nc3ccccc31)c1c(nc(N)[nH]c1=O)N2 | 104
* Cc1ccc(N/N=C(/C(=O)c2ccc(Cl)cc2)c2nc(C)cc(=O)[nH]2)cc1 | 104
* NS(=O)(=O)c1cc(C2(O)NC(=O)c3ccccc32)ccc1Cl (centres undefined) | 104
* O=C(Nc1cccc(-n2cc(-c3ccncc3)c(-c3cc(O)cc(Cl)c3)n2)c1)Nc1ccc(Cl)c(Cl)c1 | 30.8
* CC[n+]1c(/C=C/c2ccc(N3CCCC3)cc2)cccc1/C=C/c1ccc(N2CCCC2)cc1 | -93.9

**Query** Assign growth to the following record: "Cc1sc2nc3c4ccccc4c(NCCCN(C)C)nn3c(=O)c2c1C"
**Result** 81.6

**Query** Assign growth to the following record: O=C(Oc1ccccc1)C(Br)C(Br)c1ccccc1 (centres undefined)
**Result** 104

**Query** Assign growth to the following record: "COc1ccccc1-n1c(-c2ccc(O)cc2C)cn2c3c(=O)[nH]c(=O)n(C)c3nc12"
**Result** 117

**Query** Assign growth to the following record: "Cc1ccc2nc3c(n2c1)C(=O)C(=O)c1ccccc1-3"
**Result** -77.7

**Query** Assign growth to the following record: "N#Cc1c(NC(=O)c2ccco2)[n+]([O-])c2cc(Cl)c(Cl)cc2[n+]1[O-]"
**Result** 111

**Query** Assign growth to the following record: "N#Cc1c(-c2ccccc2)cc(-c2ccccc2)n(CCC(=O)O)c1=O"
**Result** 56.1
